# Tested on: E. coli TESEC Mtb Alr
# TEST METHOD NOTES: growth (OD600 after 10 h); higher = more growth (less inhibition)
# RUN CONDITIONS: arabinose 100 nM; compound 0.1 mM; raw OD600 reference: median of DMSO wells 0.413, cell-free background 0.052
READOUT LABEL: growth
Give bare numbers.

Recorded results for 2 compounds are shown here.
C[N+]1(C)CCCC(OC(=O)C(O)(c2ccccc2)c2ccccc2)C1 (stereo not drawn) [Mepenzolate bromide]    0.405
CC(C)(C)NCC(O)c1ccccc1Cl (stereo not drawn) [Tulobuterol]    0.409

// growth lookup, compound = CCCC(C)(COC(N)=O)COC(=O)NC(C)C (stereo not drawn) [Carisoprodol] , result: 0.403

###

Record form. Attribute: growth. Fill in for each entry.
# Test system: E. coli TESEC Mtb Asd
# TEST METHOD NOTES: growth (OD600 after 10 h); higher = more growth (less inhibition)
# RUN CONDITIONS: arabinose induction (level): High; compound 0.1 mM; raw OD600 reference: median of DMSO wells 0.331, cell-free background 0.041
Counter-ions that a name gives are not always drawn.

For each of the items listed, what is its growth?
1. CCN[C@@H](C)Cc1cccc(C(F)(F)F)c1 [Dexfenfluramine hydrochloride]
2. NC(=O)OCCCc1ccccc1 [Phenprobamate]
3. CCC(COC(=O)c1cc(OC)c(OC)c(OC)c1)(c1ccccc1)N(C)C (configuration not stated)
4. C[C@@H]1C[C@@H]([C@H](O)CC2CC(=O)NC(=O)C2)C(=O)[C@@H](C)C1 [Cycloheximide]
5. CO[C@]12C[C@@H](COC(=O)c3cncc(Br)c3)CN(C)[C@@H]1Cc1cn(C)c3cccc2c13
6. CCCC(C)(COC(N)=O)COC(=O)NC(C)C (configuration not stated)

1: 0.235; 2: 0.31; 3: 0.205; 4: 0.469; 5: 0.221; 6: 0.268

For each of the items listed, what is its growth?
1. C[N+]1(C)[C@@H]2CC[C@H]1C[C@@H](OC(=O)C(CO)c1ccccc1)C2 (some centres not stated) [Methylatropine nitrate]
2. CC(N)C(O)c1ccccc1 (configuration not stated) [Phenylpropanolamine hydrochloride]
3. CCC1=C[C@H]2CN3CCc4c([nH]c5ccccc45)[C@](C(=O)OC)(C2)[C@H]13
4. C#C[C@]1(O)CC[C@H]2[C@@H]3CCC4=CC(=O)CCC4=C3C=C[C@@]21CC
5. c1ccc2nc(N3CCNCC3)ccc2c1 [Quipazine dimaleate salt]
6. C[C@]12CC[C@@H]3c4ccc(OC(=O)N(CCCl)CCCl)cc4CC[C@H]3[C@@H]1CC[C@@H]2O
7. COc1cc2c(c(OC)c1OC)-c1ccc(OC)c(=O)cc1[C@@H](NC(C)=O)CC2

0.286
0.399
0.2
0.216
0.223
0.207
0.276

For each of the items listed, what is its growth?
1. CCN(CC)C(C)C(=O)c1ccccc1 (configuration not stated) [Amfepramone hydrochloride]
2. C[C@]12COC(=O)C[C@@H]1CC[C@@H]1[C@@H]2CC[C@@]2(C)[C@H]1CC[C@]2(C)O
3. C#C[C@]1(O)CC[C@H]2[C@@H]3CCC4=CC(=O)CC[C@]4(C)[C@H]3CC[C@@]21C
4. c1ccc2c(c1)OCC(C1=NCCN1)O2 (configuration not stated) [Idazoxan hydrochloride]
5. CC[N+]1(C)CCCC(OC(=O)C(O)(c2ccccc2)c2ccccc2)C1 (configuration not stated) [Pipenzolate bromide]
6. C=C1C[C@@H]2[C@H](CC[C@]3(C)C(=O)CC[C@@H]23)[C@@]2(C)C=CC(=O)C=C12
7. O=C(O)CCCc1ccc(N(CCCl)CCCl)cc1

1: 0.256; 2: 0.148; 3: 0.344; 4: 0.373; 5: 0.299; 6: 0.0993; 7: 0.258

For each of the items listed, what is its growth?
1. COc1ccc(Cc2nccc3cc(OC)c(OC)cc23)cc1OC [Papaverine hydrochloride]
2. CCCC[N+]1(C)[C@@H]2CC(OC(=O)[C@H](CO)c3ccccc3)C[C@H]1[C@@H]1O[C@@H]12 (some centres not stated) [Butylscopolammonium (n-) bromide]

1: 0.133; 2: 0.372
